# Tested on: MDA-MB-435
# protocolNotes: NCI tumour cell line growth inhibition, 48 h
Where a SMILES comes first, the peptide text is derived from it. The star is where a group is joined. Boc = CC(C)(C)OC(=O)*; Bz = O=C(c1ccccc1)*
For each of the compounds below, state its TGI.
The figure you give is taken to be in µM; do not add the unit.

Request body: readout TGI, system MDA-MB-435, query COc1ccc2[nH]c(=O)c3c4ccccc4cn3c2c1 . Return the value.
0.411

Param readout = TGI; param system = MDA-MB-435; param query = CC(NC(=O)C(Cc1ccc(OC(=O)c2ccccc2)cc1)NC(=O)OC(C)(C)C)C(=O)NC(Cc1ccccc1)C(=O)NCC(N)=O (stereo not given) (Boc-Y(Bz)AFG-NH2; configuration not given here) ; response: value
47.4

So what TGI did O=C1/C(=C/c2ccccc2)CCCC1CN1CCCCC1 (stereo not given) get with MDA-MB-435?
4.26

====

# Tested on: HT29 colon
# protocolNotes: NCI tumour cell line growth inhibition, 48 h
Would you kindly list TGI for each of these compounds?

Given the entry CN=C(N)N/N=C(\C)c1ccc2c(c1)Cc1cc(/C(C)=N/NC(N)=NC)ccc1-2 , report its measured TGI.
> 20.8 µM

I'd like to know its TGI. The compound in question is Cc1cc(N(CCC#N)CCC#N)ccc1/C=C1N=C(/C=C\c2ccccc2)OC\1=O
> 100 µM

State the recorded TGI for this entry: Cc1cc2nc(C(C)C(=O)c3ccc(Cl)cc3)c(=O)[nH]c2cc1C (configuration not stated)
66.4 µM

Query (compound): NCCSc1nc2ccccc2s1 ; field requested: TGI
> 100 µM

Form field: reported TGI of O=C1OC(c2ccccc2)=N/C1=C\c1cccnc1
> 100 µM

Query (compound): N#CN=C(N)c1sc2nc3c(c(-c4ccc(Br)cc4)c2c1N)CCCC3 ; field requested: TGI
48.8 µM

// returns reported TGI for input COc1cccc2c1C(=O)C=CC2=O
26.9 µM

What value of TGI has been recorded for this entry: Cc1ccc(C2=Nc3cc(C)c(Cl)cc3S(=O)(=O)NN2)cc1
> 100 µM

TGI for Cc1c2c(c(C)n1-c1ccccc1)C(=O)N(CCCCN1CCN(c3ccccc3)CC1)C2=O ?
10.1 µM

For the compound shown here, Cc1cn(Cc2ccccc2CCO)c(=S)[nH]c1=O , give the reported TGI.
> 100 µM

Which TGI is listed for COc1ccc(C2=CC(c3ccccc3)n3nnnc3N2)cc1 (configuration not stated) ?
> 100 µM

Find the recorded TGI belonging to O=C(O)c1cc2ccccc2c(N=Nc2ccccc2)c1O and report it.
54.8 µM

Could you tell me which TGI is on file for O=c1sc2c(s1)SSSSS2 ?
> 50 µM

# input compound: Cc1c(NC(=S)NN)c(=O)n(-c2ccccc2)n1C ; wanted: its TGI
> 100 µM

TGI lookup needed for COc1cc2c(cc1OC)-c1cc3ccccc3c[n+]1CC2 , thanks.
> 100 µM

Field request: TGI | item: Cc1ccc(S(=O)(=O)N[C@H](C(=O)O)c2ccccc2)cc1
> 100 µM

Would you mind telling me what TGI value was observed for C/C=C/[C@H]1O[C@@](O)([C@@H](C)[C@H](O)[C@H](C)[C@H]2OC(=O)/C(OC)=C/C(C)=C/[C@@H](C)[C@@H](O)[C@@H](CC)[C@@H](O)[C@H](C)C/C(C)=C/C=C/[C@@H]2OC)C[C@H](OC2CC(O)C(O)C(C)O2)[C@@H]1C (some centres not stated) ?
8.03 µM

Which TGI reading was recorded for the compound Brc1ccc2[nH]cc(-c3csc(-c4ccccn4)n3)c2c1 ?
38.7 µM

I would be grateful if you could share the reported TGI for COc1cc(C2SC(N)=Nc3c2c(C)nn3C(=O)c2ccccc2O)cc(OC)c1OC (configuration not stated) .
> 10 µM

What value of measured TGI is listed for N#Cc1c(N2CCCC2)nsc1NCc1ccccc1 ?
> 100 µM

What does the record list as TGI for C/C(=N\NC(=O)c1sc(=S)n(C)c1N)c1cc2ccccc2o1 ?
18.9 µM

Reported TGI for CN1C(=O)CC(c2cccc(C3CC(=O)N(C)C3=O)n2)C1=O (configuration not stated) : what is it?
> 100 µM

====

# Tested on: HCT-116 colon
# protocolNotes: NCI tumour cell line growth inhibition, 48 h; in the data active = GI50 below about 0.43 µM; inactive = the rest
Outcomes you can answer with include only these: 1.0 = active, 0.0 = inactive

Would you mind telling me which call this test gave CCNC(=O)[C@@H]1CCCN2C(=O)CC[C@H](NC(=O)[C@H](Cc3ccc(OP(=O)(O)O)cc3)NC(C)=O)C(=O)N12 ?
0.0

Test call for this compound, please: CC[C@]1(O)C[C@H]2CN(CCc3c([nH]c4ccccc34)[C@@](C(=O)OC)(c3cc4c(cc3OC)N(C=O)[C@H]3[C@@](O)(C(=O)OC)[C@H](OC(C)=O)[C@]5(CC)C=CCN6CC[C@]43[C@@H]65)C2)C1
1.0

Tell me the recorded outcome of this test for Cn1cc(-c2ccc3c(Nc4cccc(NC(=O)Nc5cccc(F)c5)c4)ncnc3c2)cn1 .
0.0

What is the recorded call for this compound in the test? CC(C)[C@]12O[C@H]1[C@@H]1O[C@]13[C@]1(O[C@H]1C[C@H]1C4=C(CC[C@@]13C)C(=O)OC4)[C@@H]2O
1.0

Hello, I am checking results. What call was entered for FC(F)(F)c1nc(N2CCCC2)ncc1-c1nnnn1-c1ccc(Cl)cc1 ?
0.0

Kindly provide the recorded test outcome for the following compound: O=C(Nc1ccc(Cl)c(Cl)c1)c1cccc(NC2=C(Cl)C(=O)N(Cc3ccccc3)C2=O)c1
0.0

I'd appreciate the recorded outcome for C=C1C(=O)O[C@H]2[C@H]1CC/C(CNC(=O)Cc1c[nH]c3ccccc13)=C\CC[C@@]1(C)O[C@@H]21 from this test.
0.0

Dear colleague, could you share the recorded outcome for COc1cc2c(cc1O)CC[C@@H]1[C@@H]2CC[C@]2(C)[C@@H](NCCN(C)C)CC[C@@H]12 when you have a moment?
1.0

I would be grateful if you could indicate the recorded call for C/C(=N\NC(=O)c1sc(=S)n(C)c1N)c1cc2ccccc2o1 .
0.0

Look up the recorded call for O=C1C(Cl)=C(Nc2cccc(Cl)c2)C(=O)N1Cc1ccccc1 in this test.
0.0

I'd appreciate the recorded outcome for CCCCC[C@H](O)/C=C/[C@@H]1[C@@H](C/C=C\CCCC(=O)O)[C@@H](O)C[C@H]1O from this test.
0.0

For Cc1nc(-c2cccc(Nc3nc(-c4ccc(Cl)cc4)cs3)c2)cs1 , what call appears in the results of this test?
0.0

Which result was noted for this compound in the test: CC1(C#N)N(C(=O)c2ccccc2)c2ccccc2N1C(=O)c1ccccc1
0.0

Please state the recorded outcome for this compound: O=C(Nc1cccc(-n2ccc3c(NC(=O)c4ccccc4)nccc32)c1)c1ccc(N2CCOCC2)c(C(F)(F)F)c1
1.0

====

Would you kindly list TGI for each of these compounds?
# Test system: RXF 393 renal
# protocolNotes: NCI tumour cell line growth inhibition, 48 h

Entry CC[C@]12CCCN3CCc4c(n(c5ccccc45)C(=O)C1)[C@@H]32 : reported TGI = ?
63.7 µM

What value of measured TGI is listed for Nc1sc2c(c1C(=O)c1ccc(Cl)c(Cl)c1)CCCC2 ?
> 100 µM

What measured TGI goes with COc1ccc(OC)c(/C=N/NC(=O)Cc2csc3nc(-c4ccc(Br)cc4)cn23)c1 ?
67.4 µM

# TGI lookup, item CC(=O)[C@@H]1[C@@H](OC(=O)CCC(C)COC2OC(CO)C(O)C(O)C2O)C[C@H]2[C@@H]3CC=C4C[C@@H](OC5OC(CO)C(OC6OC(C)C(O)C(O)C6O)C(O)C5OC5OC(C)C(O)C(O)C5O)CC[C@]4(C)[C@H]3CC[C@]12C (some centres undefined)
> 100 µM

What value of TGI has been recorded for this entry: COc1ccc(Oc2cccc(/C=C3/C(=O)Nc4ccccc43)c2)cc1
15.7 µM

Give its TGI value. Item: CCC1=NC(N/N=C/c2ccco2)=N/C1=C\c1ccccc1O
> 100 µM

May I ask what TGI has been recorded for COc1ccc(C2CC(c3cc(OC)c(OC)c(OC)c3)=NO2)cc1OCCCCOc1cc2c(cc1OC)C(=O)N1CCC[C@H]1C=N2 (some centres undefined) ?
2.72 µM

So what does the record say about TGI for NC(=O)NNCc1ccccc1 ?
> 100 µM

Request the reported TGI associated with CN1C(=O)CC(c2cccc(C3CC(=O)N(C)C3=O)n2)C1=O (centres undefined)
> 100 µM

====

# Tested on: BT-549 breast
# protocolNotes: NCI tumour cell line growth inhibition, 48 h
Kindly state TGI for each of the entries shown.

Short answer please: TGI, BT-549 breast, entry NCCSc1nc2ccccc2s1
93.8 µM

Quick check: TGI on BT-549 breast, item COC(=O)CCc1cc(OC)c(O)c(C(Cc2ccc(OC)c(OC)c2)C(=O)OC)c1 (stereo not given) ?
> 100 µM

Query the reported TGI for BT-549 breast; item: O=C(Nc1cccc(-n2ccc3c(NC(=O)c4ccccc4)nccc32)c1)c1ccc(N2CCOCC2)c(C(F)(F)F)c1
> 67.7 µM

Could you share what TGI was measured for CCOC(=O)NC(Nc1ncccn1)(C(F)(F)F)C(F)(F)F , tested on BT-549 breast?
> 100 µM

Notebook: pull reported TGI for BT-549 breast, entry CC1(C)N=C(N)N=C(N)N1c1cccc(CCCCc2cccc(S(=O)(=O)F)c2)c1
> 43.1 µM

Give recorded TGI with BT-549 breast for the following compound: COc1cc(C(=O)/C=C/c2c(C)n([O-])c3ccc(C)cc3[n+]2=O)cc(OC)c1OC
33.2 µM

Provide the documented TGI with BT-549 breast as the system for COc1ccc(C2CC(c3cc(OC)c(OC)c(OC)c3)=NO2)cc1OCCCCOc1cc2c(cc1OC)C(=O)N1CCC[C@H]1C=N2 (stereo not given in full)
3.54 µM

Find the measured TGI: item O=S(=O)(O)c1c(Cl)cc(O)c2ncccc12 , target or system BT-549 breast.
> 100 µM

Give TGI (BT-549 breast) of the following compound: ClCCCN(CCCCl)c1ccc(C=Nc2cccc(Cl)c2)cc1
> 100 µM

Please state recorded TGI (tested on BT-549 breast) of CCOC(=O)c1cnn2c1ncc1c(=O)n(NC(N)=O)ccc12
> 100 µM
